# key: entry, value: PDI
assay-overview: LNP average particle size and polydispersity by dynamic light scattering
Format: physicochemical
run-conditions: LNP with the compound as amine lipid; Expt. 9; composition ratio (mol %) 50/9/38/3 for Cmpnd 49, 50/10/38.5/1.5 for the others
Respond with the number and no other words.

Here's what some known entries look like.
compound="CCCCC/C=C\\C/C=C\\CCCCCCCC(=O)OCC(COC(=O)CCC(OCCCCCCCC)OCCCCCCCC)COC(=O)OCCCN(CC)CC (stereo not shown) [Compound 49, reference compound]" measured_quantity=PDI recorded_number=0.04
compound="CCCCC/C=C\\C/C=C\\CCCCCCCC(=O)OCC(COC(=O)CCCCCCC/C=C\\C/C=C\\CCCCC)OC(=O)CCC(CC(CC)CC)OC(=O)NCCN1CCCC1 (stereo not shown)" measured_quantity=PDI recorded_number=0.01

The value of PDI measured for the compound CCCCC/C=C\C/C=C\CCCCCCCC(=O)OCC(COC(=O)CCCCCCC/C=C\C/C=C\CCCCC)OC(=O)CC[C@@H](CCCCCC)OC(=O)NCCN1CCCC1 turned out to be 0.02

The recorded PDI for entry CCCCC/C=C\C/C=C\CCCCCCCC(=O)OCC(COC(=O)CCCCCCC/C=C\C/C=C\CCCCC)OC(=O)CCC(CCC(C)CCCC(C)C)OC(=O)NCCN1CCCC1 (stereo not shown) equals 0.02

---

assay-overview: LNP average particle size and polydispersity by dynamic light scattering
Assay type: physicochemical
run-conditions: LNP with the compound as amine lipid; Expt. 4; composition ratio (mol %) 50/9/38/3 for Cmpnd 49, 50/10/38.5/1.5 for the others
Description: The LNPs have a size of about 1 to about 1,000 nm, about 10 to about 500 nm, about 20 to about 500 nm, in a sub-embodiment about 50 to about 400 nm, in a sub-embodiment about 50 to about 300 nm, in a sub-embodiment about 50 to about 200 nm, and in a sub-embodiment about 50 to about 150 nm, and in another sub-embodiment about 60 to about 120 nm. […] The average sizes (diameters) of the fully formed LNP, may be measured by dynamic light scattering on a Malvern Zetasizer. […]
Label t when Num Ave Size (nm) >= 80 nm; otherwise f.

compound="CCCCC/C=C\\C/C=C\\CCCCCCCC(=O)OCC(COC(=O)CCCCCCC/C=C\\C/C=C\\CCCCC)OC(=O)CCC(CCCCC)OC(=O)NCCN(C)CC (stereo not drawn) [Compound 69]" answer_label=t
compound="CCCCC/C=C\\C/C=C\\CCCCCCCC(=O)OCC(COC(=O)CCCCCCC/C=C\\C/C=C\\CCCCC)OC(=O)CCC(CCCCCCCCCC)OC(=O)NCCN(C)CC (stereo not drawn) [Compound 39]" answer_label=f

Is it the case that CCCCC/C=C\C/C=C\CCCCCCCC(=O)OCC(COC(=O)CCCCCCC/C=C\C/C=C\CCCCC)OC(=O)CCC(CCCCCCCCCCCC)OC(=O)NCCN(C)CC (stereo not drawn) [Compound 7] has Num Ave Size (nm) reaching or exceeding 80 nm? f

Identify whether the reported Num Ave Size (nm) of the following compound is 80 nm or greater: CCCCC/C=C\C/C=C\CCCCCCCC(=O)OCC(COC(=O)CCCCCCC/C=C\C/C=C\CCCCC)OC(=O)CCC(CCCCCCC)OC(=O)NCCN(C)CC (stereo not drawn) [Compound 73] f

Does the compound CCCCC/C=C\C/C=C\CCCCCCCC(=O)OCC(COC(=O)CCC(OCCCCCCCC)OCCCCCCCC)COC(=O)OCCCN(CC)CC (stereo not drawn) [Compound 49, reference compound] have recorded Num Ave Size (nm) that is 80 nm or more? f
